# System: Wnt4
# method: Wnt4 transcript levels by RT-PCR in mouse mammary organoids stimulated ex vivo
# Type: cell-based
# test context: C57Bl/6 mice, 6 h, 20 nM
measured endpoint: Wnt4 transcript induction (fold)
Quick reminder: number only, in fold, skip the unit.

CCC(=O)[C@@]1(C)CC[C@H]2[C@@H]3CCC4=CC(=O)CCC4=C3CC[C@@]21C [R5020, promegestone] ... 4.2

Now, please, on to the next molecule.
Req: Fill in reported Wnt4 transcript induction for this entry: C#C[C@]1(O)C=C[C@H]2[C@@H]3CCC4=CC(=O)CC[C@@H]4[C@H]3CC[C@@]21CC [GSN, gestodene]
Resp: 3.6
